These data points were gathered from the supplement of paper PMC13380429.

Test system: Caco-2
Test: cell viability relative to DMSO; higher = less toxic
Settings: 72 h; 1000 nM
ASSAY_ENDPOINT: cell viability
State the value, then name its unit.

>  <COMPOUND>
O=[N+]([O-])c1ccc2c(c1)S(=O)(=O)C=C2

>  <ASSAYED_TARGET>
Caco-2

>  <cell viability>
91.2%

$$$$
>  <COMPOUND>
CC(C)(C)NCC(O)c1cc(O)cc(O)c1 (configuration not stated) [TERBUTALINE HEMISULFATE]

>  <ASSAYED_TARGET>
Caco-2

>  <cell viability>
91.8%

$$$$
>  <COMPOUND>
CC(CCc1ccccc1)NC(C)C(O)c1ccc(O)cc1 (configuration not stated)

>  <ASSAYED_TARGET>
Caco-2

>  <cell viability>
92.5%

$$$$

I have 4 compounds here; please give me cell viability for each one.
1. FC(F)(F)c1ccccc1-n1ccnc1
2. Cc1ccccc1CN1C(=O)C2=C(CCN(Cc3ccccc3)C2)N2CCN=C12
3. O=C(O)c1cn(C2CC2)c2cc(N3CCNCC3)c(F)cc2c1=O
4. O=C(O)[C@]1(Cc2cccc(Nc3nccs3)n2)CC[C@@H](Oc2cccc(Cl)c2F)CC1

1: 93.5%; 2: 107%; 3: 112%; 4: 76.2%

----------
System: A549-ACE2
Test: phospholipidosis EC50; higher = less potent phospholipidosis inducer
Settings: 48 h
ASSAY_ENDPOINT: phospholipidosis EC50
Kindly report the value followed by its unit.

These solved cases illustrate the format of a correct answer.
>  <MOLECULE>
C=CCN(C)CCCCCCOc1ccc(C(=O)c2ccc(Br)cc2)c(F)c1 [Ro-48-8071]

>  <RESULT>
4.65 µM

$$$$
>  <MOLECULE>
CCCCCCCCNC(C)C(O)c1ccc(SC(C)C)cc1 (centres undefined) [suloctidil]

>  <RESULT>
9.12 µM

$$$$
>  <MOLECULE>
Cc1[nH]c(/C=C2\C(=O)Nc3ccc(S(=O)(=O)N(C)c4cccc(Cl)c4)cc32)c(C)c1C(=O)N1CCN(C)CC1

>  <RESULT>
3.94 µM

$$$$

Now let's try a different one.
For O=c1[nH]c2ccccc2n1C1CCN(CCCC(c2ccc(F)cc2)c2ccc(F)cc2)CC1 [pimozide] on A549-ACE2, measured phospholipidosis EC50 was 6.29 µM

----------
Exercise: for every item that follows, state its recorded cell count.
Tested on: A549-ACE2 infected with SARS-CoV-2
Assay: cell count relative to DMSO; higher = less toxic
Conditions: 3 µM; 24 h
Answers are plain numbers, in %.

Worked cases, answers included:
>  <COMPOUND>
CCC(CC)COC(=O)[C@H](C)N[P@](=O)(OC[C@H]1O[C@@](C#N)(c2ccc3c(N)ncnn23)[C@H](O)[C@@H]1O)Oc1ccccc1

>  <ASSAYED_TARGET>
A549-ACE2 infected with SARS-CoV-2

>  <cell count (%)>
116

$$$$
>  <COMPOUND>
C[C@@H](Oc1cc(-n2cnc3ccc(CN4CCN(C)CC4)cc32)sc1C(N)=O)c1ccccc1C(F)(F)F

>  <ASSAYED_TARGET>
A549-ACE2 infected with SARS-CoV-2

>  <cell count (%)>
62

$$$$
>  <COMPOUND>
COc1ccc(C[C@H]2NC[C@H](O)[C@H]2OC(C)=O)cc1

>  <ASSAYED_TARGET>
A549-ACE2 infected with SARS-CoV-2

>  <cell count (%)>
34

$$$$
>  <COMPOUND>
Cc1nc(Nc2ccc(F)cc2)nc(N2CCc3ccccc3C2C)c1C (stereo unspecified)

>  <ASSAYED_TARGET>
A549-ACE2 infected with SARS-CoV-2

>  <cell count (%)>
110

$$$$
>  <COMPOUND>
OC(CCN1CCCCC1)(c1ccccc1)C1CC2C=CC1C2 (stereo unspecified)

>  <ASSAYED_TARGET>
A549-ACE2 infected with SARS-CoV-2

>  <cell count (%)>
107

$$$$

Consider C=CCN(C)CCCCCCOc1ccc(C(=O)c2ccc(Br)cc2)c(F)c1 . Its measured cell count is 114

----------
Kindly state cell viability for each of the entries shown.
Test system: U2OS
Assay: cell viability relative to DMSO; higher = less toxic
Details: 72 h; 1000 nM
The answer should read as a number with its unit following.

>  <SMILES_REPR>
FC(F)(F)c1ccccc1-n1ccnc1

>  <RESULT>
95.7%

$$$$
>  <SMILES_REPR>
CC1(C)S[C@@H]2[C@H](NC(=O)COc3ccccc3)C(=O)N2[C@H]1C(=O)O

>  <RESULT>
97%

$$$$
>  <SMILES_REPR>
Cc1cc(O)ccc1Cl

>  <RESULT>
97.8%

$$$$
>  <SMILES_REPR>
CCNC1(C(N)=O)CCN(c2ncnc3c2nc(-c2ccccc2Cl)n3-c2ccc(Cl)cc2)CC1

>  <RESULT>
98.1%

$$$$
>  <SMILES_REPR>
C[C@@H]1CC[C@@]2(NC1)O[C@H]1C[C@H]3[C@@H]4CC=C5C[C@@H](O[C@@H]6O[C@H](CO)[C@@H](O[C@@H]7O[C@@H](C)[C@H](O)[C@@H](O)[C@H]7O)[C@H](O)[C@H]6O[C@@H]6O[C@@H](C)[C@H](O)[C@@H](O)[C@H]6O)CC[C@]5(C)[C@H]4CC[C@]3(C)[C@H]1[C@@H]2C

>  <RESULT>
99.1%

$$$$
>  <SMILES_REPR>
COc1cc(F)c(C(C)C)cc1-c1ccc(C(F)(F)F)cc1CN1C(=O)O[C@H](c2cc(C(F)(F)F)cc(C(F)(F)F)c2)[C@@H]1C

>  <RESULT>
99.8%

$$$$

Next compound, please.
Form field cell viability for item O=C(CC12CC3CC(CC(C3)C1)C2)Nc1cccc2nc(NCCNCCO)ccc12 on U2OS: 97.9%

----------
Give measured cell viability for each item. Keep answers brief.
Tested on: Caco-2
Experiment: cell viability relative to DMSO; higher = less toxic
Details: 72 h; 1 nM
Answers are plain numbers, in %.

Before answering, review these 4 worked examples.
>  <MOLECULE>
CS(=O)(=O)OC[C@H](O)[C@@H](O)COS(C)(=O)=O

>  <cell viability, %>
95.6

$$$$
>  <MOLECULE>
O=C(NCCCCN1CCN(c2cccc(Cl)c2Cl)CC1)c1ccc2c(c1)Cc1ccccc1-2

>  <cell viability, %>
89.4

$$$$
>  <MOLECULE>
C=C[C@@H]1C[C@]1(NC(=O)[C@@H]1C[C@@H]2CN1C(=O)[C@H](C(C)(C)C)NC(=O)O[C@@H]1C[C@H]1CCCCCc1nc3ccc(OC)cc3nc1O2)C(=O)NS(=O)(=O)C1CC1

>  <cell viability, %>
101

$$$$
>  <MOLECULE>
CCCOC(=O)c1ccc(O)cc1 [propyl 4-hydroxybenzoate]

>  <cell viability, %>
92.2

$$$$

Value sought for every listed molecule: cell viability.
1. O=C1NC(=O)C(c2cnc3ccccn23)=C1c1cn2c3c(cc(F)cc13)CN(C(=O)N1CCCCC1)CC2
2. CCOC(=O)CC(=O)N1CCSC1COc1ccccc1OC (stereo not drawn)

104
98.6

Return reported cell viability values for all items listed beneath this line.
1. COc1ccc(C(=O)CC2(O)C(=O)Nc3c(Cl)ccc(Cl)c32)cc1 (stereo not drawn)
2. CNCC(O)c1ccc(OC(=O)C(C)(C)C)c(OC(=O)C(C)(C)C)c1 (stereo not drawn)

[105, 104]

----------
System: U2OS
Assay: relative viability EC50 (midpoint between 100% and the lowest measured viability); higher = less toxic
Settings: 72 h
ASSAY_ENDPOINT: relative viability EC50

>  <COMPOUND>
CC12CC3CC(C)(C1)CC(N)(C3)C2 [memantine]

>  <ASSAYED_TARGET>
U2OS

>  <relative viability EC50>
> 10 µM

$$$$
>  <COMPOUND>
CC(=O)SC[C@@H](Cc1ccccc1)C(=O)NCC(=O)OCc1ccccc1 (racemic) [racecadotril]

>  <ASSAYED_TARGET>
U2OS

>  <relative viability EC50>
> 10 µM

$$$$
>  <COMPOUND>
C=CCN(C)CCCCCCOc1ccc(C(=O)c2ccc(Br)cc2)c(F)c1 [Ro-48-8071]

>  <ASSAYED_TARGET>
U2OS

>  <relative viability EC50>
> 10 µM

$$$$
>  <COMPOUND>
O=C(CCCCCCC(=O)Nc1ccccc1)NO [vorinostat]

>  <ASSAYED_TARGET>
U2OS

>  <relative viability EC50>
1.7 µM

$$$$
>  <COMPOUND>
CN1C2CCCC1CC(NC(=O)c1nn(C)c3ccccc13)C2 (centres undefined) [granisetron]

>  <ASSAYED_TARGET>
U2OS

>  <relative viability EC50>
> 10 µM

$$$$

Would you mind listing relative viability EC50 for each of the following compounds?
1. CCNCCS(=O)(=O)NC[C@@]1(c2ccccc2)SC(NC(=O)C(C)(C)C)=NN1C(=O)C(C)(C)C [litronesib]
2. COC1CCN(c2cccc(-c3cc(NC(C)=O)nc(-n4nc(C)cc4C)n3)n2)CC1 [TC-G-1004]

1: 0.0488 µM; 2: > 10 µM

Give relative viability EC50 for each of the items listed below.
1. CCCCOc1ccc(C(=O)Nc2ccc(F)cc2F)cc1
2. COc1ccc(Cc2nc(O)c3c(C)nc([C@@H](CCCc4ccccc4)[C@@H](C)O)n3n2)cc1OC [BAY-60-7550]
3. CC(C)(C)C(=O)OCOC(=O)[C@@H]1N2C(=O)C[C@H]2S(=O)(=O)C1(C)C [sulbactam-pivoxil]
4. O=C(O)P(=O)(O)O [foscarnet]
5. Cc1cccc(C(=O)O)c1O [hydroxytoluic-acid]
6. CN(CCOc1ccc(NS(C)(=O)=O)cc1)CCc1ccc(NS(C)(=O)=O)cc1 [dofetilide]
7. CCCCN(CCCC)CCCOC(=O)c1ccc(N)cc1 [butacaine]
8. CC(C)c1ccc(-c2cc(=O)c3ccccc3o2)cc1 [MN-64]

1. > 10 µM
2. > 10 µM
3. > 10 µM
4. > 10 µM
5. > 10 µM
6. > 10 µM
7. > 10 µM
8. > 10 µM

Need relative viability EC50 for each of these compounds.
1. O=C(/C=C/c1ccccc1)NCCO [brolitene]
2. CC(N)Cc1ccc(O)cc1 (centres undefined) [hydroxyamphetamine]
3. CCCC[N+]1(C)[C@@H]2C[C@@H](OC(=O)[C@H](CO)c3ccccc3)C[C@H]1[C@@H]1O[C@@H]12 (some centres undefined) [butylscopolamine-bromide]
4. Cc1c(OCC(F)(F)F)ccnc1C[S+]([O-])c1nc2ccccc2[nH]1 (centres undefined) [lansoprazole]

1: > 10 µM; 2: > 10 µM; 3: > 10 µM; 4: > 10 µM
